Each recorded value in this set is attributed to the supplement of paper PMC13380429.

System: Vero E6 infected with SARS-CoV-2
procedure text: SARS-CoV-2 infection rate relative to infected DMSO; higher = more infection, active = 60 or less
measurement parameters: 24 h
metric name: SARS-CoV-2 infection rate (%)
Answers are plain numbers, in %.

Examples from the recorded data:
                                   compound                               tgt  measured
0  CCOC(=O)CC(=O)N1CCSC1COc1ccccc1OC (centres undefined) [moguisteine] (10 µM)  Vero E6 infected with SARS-CoV-2      99.5
1  CC1(C)S[C@@H]2[C@H](NC(=O)[C@H](N)c3ccccc3)C(=O)N2[C@H]1C(=O)O [ampicillin] (10 µM)  Vero E6 infected with SARS-CoV-2       102
2  COCCCOc1ccnc(C[S+]([O-])c2nc3ccccc3[nH]2)c1C (centres undefined) [rabeprazole] (10 µM)  Vero E6 infected with SARS-CoV-2       106

# input Give recorded SARS-CoV-2 infection rate. CC(=O)OCC(=O)[C@H]1CC[C@H]2[C@@H]3CC[C@H]4C[C@H](O)CC[C@]4(C)[C@H]3C(=O)C[C@]12C [alfadolone-acetate] (10 µM)
# output 116

----------
System: Vero E6 infected with SARS-CoV-2
procedure text: inhibition of SARS-CoV-2 cytopathic effect; higher = more antiviral protection, active = above 15
measurement parameters: 10000 nM; 48 h
Kindly supply the reported inhibition of SARS-CoV-2 cytopathic effect values for the records listed here.
One number for each entry, in %.

Provide reported inhibition of SARS-CoV-2 cytopathic effect for each item, in the same order as listed.
1. C[C@H](CCC(=O)NCCS(=O)(=O)O)[C@H]1CC[C@H]2[C@@H]3[C@H](O)C[C@@H]4C[C@H](O)CC[C@]4(C)[C@H]3C[C@H](O)[C@]12C [taurocholate]
2. CCCCN(CCCC)CCCOC(=O)c1ccc(N)cc1 [butacaine]
3. CCC[C@@H]1CC2=CC(=O)CC[C@]2(C)[C@H]2CC[C@@]3(C)[C@@H](CC[C@@]3(O)CCC(=O)O)[C@H]12
4. CC(CN(C)C)CN1c2ccccc2CCc2ccccc21 (stereo not given) [trimipramine]
5. N#Cc1ccc(C2CCCc3cncn32)cc1 (stereo not given) [fadrozole]
6. C/C(O)=C(\C#N)C(=O)Nc1ccc(C(F)(F)F)cc1 [teriflunomide]

# output
1. -8.38
2. -2.04
3. 1.68
4. -3.88
5. -0.19
6. 1.1

Parameter requested: inhibition of SARS-CoV-2 cytopathic effect. Apply to each item below.
1. CC(=O)Nc1nc2c(Oc3cc(-c4ccc(C(F)(F)F)cc4)ncn3)cccc2s1
2. CCOC(=O)[C@H](CCc1ccccc1)N[C@H]1CCc2ccccc2N(CC(=O)O)C1=O [benazepril]
3. CCOC(=O)c1ncn2c1CN(C)C(=O)c1cc(F)ccc1-2 [flumazenil]
4. Cc1cc(NCCO)nc(-c2ccc(Br)cc2)n1

# output
1. 1.83
2. 1.56
3. -1.96
4. -2.57

----------
System: Vero E6 infected with SARS-CoV-2
procedure text: inhibition of SARS-CoV-2 cytopathic effect; higher = more antiviral protection, active = above 15
measurement parameters: 1 nM; 48 h
Answer each item with its documented inhibition of SARS-CoV-2 cytopathic effect.
One number for each entry, in %.

Example entries and their recorded answers appear below.
compound	uom	measured
O=c1cc(-c2ccc(O)cc2)oc2cc(O)cc(O)c12 [apigenin]	%	-2.83
CC1(C)OC2(C)C(O)CC1CC2O (configuration not stated) [epomediol]	%	7.71
O=C(O)[C@H](O)c1ccccc1 [mandelic-acid]	%	-0.12
OC[C@@H](O)[C@@H](O[C@@H]1O[C@H](CO)[C@H](O)[C@H](O)[C@H]1O)[C@H](O)[C@@H](O)CO	%	-1.07
CC(C)(C)NC[C@H](O)c1ccc(O)cc1Cl [meluadrine]	%	-1.16

Please give inhibition of SARS-CoV-2 cytopathic effect for each item listed below.
1. NCC[C@H](O)C(=O)N[C@@H]1C[C@H](N)[C@@H](O[C@H]2O[C@H](CN)[C@@H](O)[C@H](O)[C@H]2O)[C@H](O)[C@H]1O[C@H]1O[C@H](CO)[C@@H](O)[C@H](N)[C@H]1O [amikacin]
2. O=C(O)c1cccc(-c2noc(-c3ccccc3F)n2)c1 [ataluren]
3. COc1ccc(Cl)c(Nc2ncnc3cc(OCC4CCN(C)CC4)c(OC)cc23)c1
4. CN1C[C@H](CNC(=O)OCc2ccccc2)C[C@@H]2c3cccc4c3c(cn4C)C[C@H]21 [metergoline]
5. Cc1c(CN(C)C(=O)/C=C/c2cnc3c(c2)CCC(=O)N3)oc2ccccc12

# output
-1.45
-0.23
-1.15
-10.3
0.18

Please go through the list and note inhibition of SARS-CoV-2 cytopathic effect for each compound.
1. S=C(NCc1ccc2c(c1)OCO2)N1CCN(c2ncnc3c2oc2ccccc23)CC1 [amuvatinib]
2. C1CCC(NC2CCCCC2)CC1 [dicyclohexylamine]

# output
3.11
2.51
